assay: Antioxidant activity assessed as inhibition of peroxyl radical-induced oxidation at 10 uM by ORAC assay; assay type: functional; design: scale not given: the % may be the effect or the level left
ENDPOINT NAME: Activity (%)
Report as a plain number; the unit % is understood.

Prompt line: # query: Activity of entry Cc1ccccc1-c1nccc2c1[nH]c1ccccc12
Response line: 58

Prompt line: Next entry: COc1ccc2[nH]c3c(-c4ccc(F)cc4)nccc3c2c1
Response line: 41

Prompt line: Next entry: COc1ccc2[nH]c3c(C(=O)c4ccc(C(F)(F)F)cc4)nccc3c2c1
Response line: 5

Prompt line: Next entry: c1ccc2c(-c3nccc4c3[nH]c3ccccc34)cccc2c1
Response line: 0

Prompt line: Next entry: O=C(c1ccc(C(F)(F)F)cc1)c1nccc2c1[nH]c1ccccc12
Response line: -10

Prompt line: Next entry: Cc1ccc2[nH]c3c(-c4ccccc4)nccc3c2c1
Response line: 10

Prompt line: Next entry: O=C(c1ccccc1)c1nccc2c1[nH]c1ccccc12
Response line: 6

Prompt line: Next entry: O=C1O[C@H]([C@@H](O)CO)C(O)=C1O
Response line: 15

Prompt line: Next entry: Cc1c(C)c2c(c(C)c1O)CCC(C)(C(=O)O)O2 (centres undefined)
Response line: 90

Prompt line: Next entry: COc1ccc2[nH]c3c(-c4ccccc4)nccc3c2c1
Response line: 35

Prompt line: Next entry: COc1ccc2[nH]c3c(-c4ccc(C)cc4)nccc3c2c1
Response line: 28

Prompt line: Next entry: Fc1ccc(-c2nccc3c2[nH]c2ccccc23)cc1
Response line: 54

Prompt line: Next entry: c1ccc(-c2nccc3c2[nH]c2ccccc23)cc1
Response line: 10

Prompt line: Next entry: COc1ccc2[nH]c3c(C(=O)c4ccc(F)cc4)nccc3c2c1
Response line: 5

# credit: ChEMBL document CHEMBL3870350
